Assay: Octanol-water partition coefficient (log D) of radiolabelled ligands
Format: physicochemical
Conditions: n-octanol/PBS, pH 7.4, 18F-L, n = 6
Observation Type: logD

query: // returns reported logD for input CC(C)(C)[Si](F)(c1ccc(C(=O)NC[C@@H](NC(=O)CCC(C(=O)O)N2CCN(CC(=O)O)CCN(CC(=O)O)CCN(CC(=O)O)CC2)C(=O)N[C@H](CCCCNC(=O)CCC(=O)NCCC[C@@H](NC(=O)CC[C@H](NC(=O)N[C@@H](CCC(=O)O)C(=O)O)C(=O)O)C(=O)O)C(=O)O)cc1)C(C)(C)C (stereo partly shown)
result: -1.98

###

Test: Octanol-water partition coefficient (log D) of radiolabelled ligands
Format: physicochemical
Conditions: n-octanol/PBS, pH 7.4, 68Ga-natF-L, n = 6
Procedure: Approximately 1 MBq of the labelled tracer was dissolved in 1 mL of a 1:1 mixture (by volumes) of phosphate buffered saline (PBS, pH 7.4) and n-octanol in an Eppendorf tube. After vigorous mixing of the suspension for 3 minutes at room temperature, the vial was centrifuged at 15000 g for 3 minutes (Biofuge 15, Heraus Sepatech, Osterode, Germany) and 100 μL aliquots of both layers were measured in a gamma counter. The experiment was repeated at least six times.
Observation Type: logD

query: // returns reported logD for input CC(C)(C)[Si](F)(c1ccc(C(=O)NC[C@@H](NC(=O)CCC(C(=O)O)N2CCN(CC(=O)O)CCN(CC(=O)O)CCN(CC(=O)O)CC2)C(=O)N[C@H](CCCCNC(=O)CCC(=O)NCCC[C@@H](NC(=O)CC[C@H](NC(=O)N[C@@H](CCC(=O)O)C(=O)O)C(=O)O)C(=O)O)C(=O)O)cc1)C(C)(C)C (stereo partly shown)
result: -3.18
